- System: U251 CNS
- measurementProtocol: NCI tumour cell line growth inhibition, 48 h
outcomeMeasure: TGI

Please report the recorded TGI for COc1ccc(-c2c3ccccc3c(-c3ccc(OCCBr)cc3)c3ccccc23)cc1 .
> 100 µM

What measured TGI goes with Cc1cc2c(cc1C)[n+]([O-])c(NCCCN(C)C)c(C#N)[n+]2[O-] ?
> 100 µM

For Clc1ccc(-c2ccc(CNCC3CCNCC3)o2)c(-c2ccccc2)c1 , what is its reported TGI?
3.01 µM

If you can, please state the reported TGI value of O=c1nc2n(c3nsnc13)CCO2 .
> 100 µM

May I ask what TGI has been recorded for C/C(=N/NC(=S)N1CCCCC1)c1cccc(/C(C)=N\NC(=S)N2CCCCC2)n1 ?
4.45 µM

Requested field: TGI. Item: O=C1OC(c2cccc(C(F)(F)F)c2)(c2cccc(C(F)(F)F)c2)c2ccc3ccccc3c21
> 100 µM

Please report the recorded TGI for Cc1c2ccccc2c(C)n2c1nc1cc3ccccc3cc12 .
3.7 µM

# query: TGI of entry COc1ccc(OC)c2c(C(=O)O)c(C(C)c3ccccc3)ccc12 (stereo not drawn)
> 100 µM

Quick one: TGI for COc1ccc(C2c3c(n(C)c(=O)n(C)c3=O)OC(N(C)C)(N(C)C)C2(F)F)cc1 (stereo not drawn) ?
> 100 µM

Look up TGI: O=C1NC(c2cccc3ccccc23)Nc2ccc(O)cc21 (stereo not drawn)
> 141 µM

Look up TGI: COc1ccc([C@H]2[C@H](C)C3=Nc4ccccc4CN32)cc1
> 100 µM

Looking for the measured TGI of CC(C)CC(N=Cc1nc(-c2ccccc2)oc1O)C(=O)O (stereo not drawn) , can you help?
> 100 µM

Can you look up the measured TGI of COC(=O)Cc1c([C@H]2[C@H](CC(=O)OC)c3ccccc3N2C(=O)C(F)(F)F)[nH]c2ccccc12 for me?
47.8 µM

Entry under review: CCN(CC)S(=O)(=O)c1ccc2nc(NC(=O)OC)[nH]c2c1 . Reported TGI?
> 100 µM

Return reported TGI; argument: CC(C)(NO)/C(=N\O)c1ccco1
> 100 µM

For Cc1cn(C(=O)NC23CC4CC(CC(C4)C2)C3)c(=O)[nH]c1=O , what is its reported TGI?
> 100 µM

Item C[C@]12CC[C@H](O)CC1=CC[C@@H]1C2CC[C@]2(C)NC(=O)C(C#N)CC12 (stereo partly drawn) has what recorded TGI?
> 100 µM

Look up TGI for this compound: O=C(CSCC(=O)N/N=C\c1cc(Cl)cc(Cl)c1O)N/N=C\c1cc(Cl)cc(Cl)c1O
6.61 µM

Consider the compound shown here: C/C=C1/C[C@@H](C)[C@@](C)(O)C(=O)OCC2=CC[N+]3([O-])CC[C@@H](OC1=O)[C@@H]23 (stereo partly drawn) What is its recorded TGI?
> 100 µM

Value lookup for TGI; key = COC12COC(=O)C1C(c1ccc3c(c1)OCO3)c1cc3c(cc1O2)OCO3 (stereo not drawn)
> 100 µM

Suppose we examine the compound COC(=O)C1SC(N(C)c2ccccc2)=NC12c1ccccc1Nc1ccccc12 (stereo not drawn) ; what TGI value has been reported?
98.8 µM

Find the recorded TGI belonging to O=C(c1ccccc1)c1ccc2nc(-c3c(Cl)c(Cl)c(Cl)c(Cl)c3C(=O)N/N=C\C=C\c3ccccc3)[nH]c2c1 and report it.
> 100 µM

Given the entry Cc1ccc2c(c1)c(C1=C(c3cn(C)c4ccccc34)C(=O)NC1=O)cn2C , report its measured TGI.
> 25 µM

Requested read-out: TGI. Entry: CCCCCCC[CH2][Sn]([Cl])([Cl])[CH2]CCCCCCC
6.09 µM

Look at this compound and give its reported TGI. COC1(C)OC[C@@]2(C)OC(C)C1(C)C2O[Si](C(C)C)(C(C)C)C(C)C (stereo partly drawn)
> 100 µM

Fill blank: measured TGI of the compound CCC[CH2][Sn]1([CH2]CCC)[O]CC(c2ccccn2)C[O]1 is ____.
29.6 µM

Query: TGI; subject: CC(=O)c1c(C)cn(S(=O)(=O)NC(=O)Nc2nncs2)c1C
> 100 µM

# input compound: O=C(OC1C=C=CS(=O)(=O)CC#C/C=C\1)c1cnc2ccccc2n1 (stereo not drawn) ; wanted: its TGI
> 100 µM

Reported TGI for COc1cc2c(cc1OC)C1c3ccccc3CCCN1CC2 (stereo not drawn) : what is it?
> 100 µM

# get_value(readout='TGI', item= O=C(O)c1ccc(C=C2Sc3ccccc3S2)cc1 )
> 100 µM

Given O=S(=O)(c1ccccc1)[C@H]1[C@@H]2O[C@@H]2C[C@@H]1O , state its recorded TGI.
> 100 µM

Param item = O=C(CCc1ccc(O)cc1)NCCc1cccc(O)c1 ; retrieve measured TGI.
> 50 µM

Field request: TGI | item: CCOC(=O)c1sc2nc(SC)nc(Nc3ccc4c(c3)OCO4)c2c1N
> 100 µM

TGI for C#Cc1nc(N)c2ncn(C3OC(COS(N)(=O)=O)C(O)C3O)c2n1 (stereo not drawn) ?
0.449 µM

# query: TGI of entry COc1cc(Nc2nc3c(N)cc(C(F)(F)F)cc3nc2-c2ccccc2)cc(OC)c1OC
> 89.2 µM

Query (compound): Cc1c(C)c(S(=O)(=O)N(CCCCCCN)OCCCN)c(C)c2c1OC(C)(C)CC2 ; field requested: TGI
> 20.7 µM

// returns reported TGI for input C/C(=C\CO)CC/C=C(\C)CNc1ccccc1
> 100 µM

Consider the compound shown here: COc1ccccc1N1CCN(CC(O)COc2c(Br)c(Br)c(Br)c3c2OC(C)(C)C3)CC1 (stereo not drawn) What is its recorded TGI?
24.2 µM

Reference source for all entries: PubChem BioAssay (NCI)
